// data source = patent US8604016B2

Tgt: recombinant form of Glutaminase 1 (GAC) (Homo sapiens)
Experiment Notes: Recombinant Enzyme Assay (GAC coupled to GDH, NADH absorbance, no preincubation)
Type: biochemical
Cond: no preincubation; read-out: GAC Delta N2 IC50 no preinc
Method: Enzymatic reaction was started with the addition of 50 μL of enzyme solution (50 mM Tris-HCl pH 8.0, 0.2 mM EDTA, 150 mM K2HPO4, 0.1 mg/ml BSA, 1 mM DTT, 10 ppm antifoam, 4 units/ml GDH, 4 mM adenosine diphosphate, and 4 nM GAC) and read in a Molecular Devices M5 plate reader at 20° C. The plate reader was configured to read absorbance (λ=340 nm) in kinetic mode for 15 minutes. […]
Reported Endpoint: IC50 (nM)

{"Compound": "O=C(Cc1ccccn1)Nc1nnc(CCSCCc2nnc(NC(=O)Cc3ccccn3)s2)s1", "Unit Info": "nM", "IC50": 600}
{"Compound": "CCOc1ccccc1CC(=O)Nc1nnc(CCSCCc2nnc(NC(=O)Cc3ccccc3OCC)s2)s1", "Unit Info": "nM", "IC50": 330}
{"Compound": "Cc1nccn1Cc1cccc(CC(=O)Nc2nnc(CCCCc3nnc(NC(=O)Cc4cccc(Cn5ccnc5C)c4)s3)s2)c1", "Unit Info": "nM", "IC50": 100}
{"Compound": "NCC(C(=O)Nc1nnc(CCSCCc2nnc(NC(=O)C(CN)c3ccccc3)s2)s1)c1ccccc1 (stereo not shown)", "Unit Info": "nM", "IC50": 12000}
{"Compound": "COc1cccc(CC(=O)Nc2nnc(CCSCCc3nnc(NC(=O)Cc4cccc(OC)c4OC)s3)s2)c1OC", "Unit Info": "nM", "IC50": 230}

I: NCCC(C(=O)Nc1nnc(CCSCCc2nnc(NC(=O)C(CN)c3ccccc3)s2)s1)c1ccccc1 (stereo not shown)
II: O=C(Nc1nnc(CCCCc2nnc(NC(=O)C3Cc4cc(Br)ccc4O3)s2)s1)C1Cc2cc(Br)ccc2O1 (stereo not shown)
### Prompt Determine, for I and II , which has the greater value of IC50. To answer, give the label that identifies your chosen option.
### Response II
